- System: CD-1 mouse liver cytosol, LC/MS substrate depletion half-life
- assay_overview: NCATS Mouse Liver Cytosol Stability Profiling
- measurement_conditions: at 1 µM; higher = more stable
readout_name: half-life (h)
Respond with the bare value in h.

Some compounds with recorded half-life:
compound="CCN1c2cc(C(=O)Nc3ccc(Cl)cc3)ccc2C(=O)N2CCCCCC21 (stereo not given)" unit_abbrev=h result_value=0.935
compound=COc1cc(=O)n2c(c1C(=O)Nc1ccc(Cl)c(F)c1)CCCC2 unit_abbrev=h result_value=1.47
compound=O=C1[C@H]2CN(Cc3ccc(Cl)cc3)C[C@H]2C(=O)N1Cc1ccc2c(c1)OCO2 unit_abbrev=h result_value=1.11
compound=O=C(Nc1ccc(-c2nnc3n2CCCC3)cc1)c1ccc(Cl)cc1 unit_abbrev=h result_value=1.95
compound=O=C1[C@H]2CN(Cc3ccc(Cl)c(F)c3)C[C@H]2C(=O)N1Cc1ccc2c(c1)OCO2 unit_abbrev=h result_value=0.921
compound=OCC1(CN2CCCC2)CCN(Cc2ccc(Cl)cc2)CC1 unit_abbrev=h result_value=0.908

Query: # get_value(readout='half-life', item= CCN1c2cc(C(=O)Nc3ccc(Cl)c(F)c3)ccc2C(=O)N2CCCCCC21 (stereo not given) )
Result: 0.904

Query: # get_value(readout='half-life', item= CCOc1cc(=O)n2c(c1C(=O)Nc1ccc(Cl)cc1)CCCC2 )
Result: 1.57

Recorded values, source PubChem BioAssay AID1508604.
